EXPERIMENTAL_SYSTEM: Polyunsaturated fatty acid 5-lipoxygenase (Rattus norvegicus, UniProt P12527)
Sequence (P12527 whole entry): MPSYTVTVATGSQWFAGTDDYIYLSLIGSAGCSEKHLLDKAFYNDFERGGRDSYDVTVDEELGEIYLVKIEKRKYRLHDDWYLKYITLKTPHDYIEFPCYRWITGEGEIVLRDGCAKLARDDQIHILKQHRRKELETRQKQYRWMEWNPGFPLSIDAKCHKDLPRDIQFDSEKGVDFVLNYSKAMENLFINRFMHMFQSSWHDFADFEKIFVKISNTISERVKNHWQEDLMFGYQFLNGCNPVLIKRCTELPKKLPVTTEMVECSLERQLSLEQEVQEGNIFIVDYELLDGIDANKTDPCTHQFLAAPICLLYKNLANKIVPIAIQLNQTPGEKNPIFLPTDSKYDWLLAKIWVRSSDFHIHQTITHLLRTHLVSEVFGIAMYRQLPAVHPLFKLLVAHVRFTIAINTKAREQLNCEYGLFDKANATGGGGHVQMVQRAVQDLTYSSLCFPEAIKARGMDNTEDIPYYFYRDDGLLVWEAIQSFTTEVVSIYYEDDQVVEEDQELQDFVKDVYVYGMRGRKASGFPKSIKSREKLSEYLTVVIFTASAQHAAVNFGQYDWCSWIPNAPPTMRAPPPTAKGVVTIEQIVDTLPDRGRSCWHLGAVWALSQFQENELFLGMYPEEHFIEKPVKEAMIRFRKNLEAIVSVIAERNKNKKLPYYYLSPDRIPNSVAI
TEST_DETAILS: The compound was tested for the inhibition of 5-lipoxygenase (5-lo) in homogenized rat basophilic leukemia (RBL-1) cells
Format: cell-based
pIC50: −log10 of the molar value.

{"columns": ["CHEM_SMILES", "pIC50"],
 "data": [
  ["CCCOC(=O)Oc1nc(-c2ccccc2)sc1CCC", 5.85]
]}

====

A collection of compounds and their measured IC50
EXPERIMENTAL_SYSTEM: Polyunsaturated fatty acid 5-lipoxygenase (Rattus norvegicus, UniProt P12527)
TEST_DETAILS: Inhibition of 5-lipoxygenase (5-lo) in intact rat polymorphonuclear leukocyte RPMNL

{"columns": ["CHEM_SMILES", "READOUT_UNIT", "IC50"],
 "data": [
  ["CCCCCC(=O)Oc1nc(-c2ccccc2)sc1-c1ccccc1", "µM", 0.5],
  ["CCCc1sc(-c2ccccc2)nc1OC(=O)OCc1ccccc1", "µM", 1.2],
  ["CCCCNC(=O)Oc1nc(-c2ccccc2)sc1CCC", "µM", 0.8],
  ["CCCc1sc(-c2ccccc2)nc1OC(=O)Nc1ccccc1", "µM", 1],
  ["CCCCc1sc(-c2ccccc2)nc1OC(C)=O", "µM", 0.5],
  ["CC(=O)Oc1nc(-c2ccc(-c3ccccc3)cc2)sc1-c1ccccc1", "µM", 0.9]
]}

====

Test system: 15-lipoxygenase (Glycine max)
TEST_DETAILS: The compound was tested for the in vitro inhibition of 15-lipoxygenase of soybean at a concentration of 100 uM
SETTINGS: at 100 µM
A collection of molecules and their measured inhibition
VALUE_TYPE: inhibition

{"columns": ["CHEM_SMILES", "VALUE_TYPE", "MEASURED"],
 "data": [
  ["Oc1nc(-c2ccccc2)sc1CCc1ccccc1", "inhibition", "34%"],
  ["Oc1nc(-c2ccc(F)cc2)sc1-c1ccccc1", "inhibition", "16%"],
  ["Oc1nc(-c2ccccc2)sc1-c1ccccc1", "inhibition", "50%"],
  ["COc1ccc(-c2nc(O)c(-c3ccccc3)s2)cc1", "inhibition", "22%"]
]}

====

A collection of compounds and their measured pIC50
EXPERIMENTAL_SYSTEM: Polyunsaturated fatty acid 5-lipoxygenase (Rattus norvegicus)
Sequence (P12527 whole entry): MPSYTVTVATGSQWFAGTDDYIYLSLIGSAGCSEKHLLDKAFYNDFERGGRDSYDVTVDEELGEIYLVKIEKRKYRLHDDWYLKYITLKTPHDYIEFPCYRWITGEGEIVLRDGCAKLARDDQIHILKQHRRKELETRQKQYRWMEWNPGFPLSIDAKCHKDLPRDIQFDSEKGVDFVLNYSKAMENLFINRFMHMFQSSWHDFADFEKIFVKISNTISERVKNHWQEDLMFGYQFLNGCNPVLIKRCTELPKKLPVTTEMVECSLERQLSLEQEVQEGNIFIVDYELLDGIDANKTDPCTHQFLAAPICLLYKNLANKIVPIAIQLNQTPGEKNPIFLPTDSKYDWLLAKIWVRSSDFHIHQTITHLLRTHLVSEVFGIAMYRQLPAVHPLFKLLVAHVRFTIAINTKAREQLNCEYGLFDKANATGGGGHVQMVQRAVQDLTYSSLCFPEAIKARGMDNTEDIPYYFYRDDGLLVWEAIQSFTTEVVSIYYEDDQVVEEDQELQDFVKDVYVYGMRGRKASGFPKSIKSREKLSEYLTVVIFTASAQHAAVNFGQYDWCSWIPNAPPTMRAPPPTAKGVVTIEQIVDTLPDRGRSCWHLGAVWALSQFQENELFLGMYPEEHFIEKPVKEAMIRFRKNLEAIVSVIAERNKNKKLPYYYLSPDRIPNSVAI
TEST_DETAILS: In vitro inhibition of 5-lipoxygenase (5-lo) from the 20000 g supernatant of RBI-1 cells
Format: cell-based
pIC50: −log10 of the molar value.

{"columns": ["CHEM_SMILES", "pIC50"],
 "data": [
  ["CCCCNC(=O)Oc1nc(-c2ccccc2)sc1CCC", 4.62],
  ["Oc1nc(-c2ccc(F)cc2)sc1-c1ccccc1", 6.30],
  ["CC(=O)c1ccc(-c2nc(O)c(C)s2)cc1", 5.85],
  ["CC(=O)Oc1nc(-c2ccccc2)sc1-c1ccccc1", 6.40],
  ["CCCCC/C=C/C/C=C/C/C=C/C/C=C/CCCC(=O)NO", 5.66]
]}

====

EXPERIMENTAL_SYSTEM: UniProt P12527
TEST_DETAILS: In vitro inhibition of 5-lipoxygenase (5-lo) from the 20000 g supernatant of RBI-1 cells
Type: cell-based

{"columns": ["CHEM_SMILES", "IC50"],
 "data": [
  ["Oc1nc(-c2ccc(-c3ccccc3)cc2)sc1-c1ccccc1", "2200 nM"],
  ["Cc1sc(-c2ccco2)nc1O", "2400 nM"],
  ["Oc1nc(-c2cccnc2)sc1-c1ccccc1", "1100 nM"],
  ["Cc1nc(O)c(-c2ccccc2)s1", "700 nM"],
  ["CCCOC(=O)Oc1nc(-c2ccccc2)sc1CCC", "3300 nM"],
  ["Cc1sc(-c2ccccn2)nc1O", "2100 nM"],
  ["CC(=O)Oc1nc(-c2ccc(C(=O)O)cc2)sc1C", "14000 nM"]
]}

====

EXPERIMENTAL_SYSTEM: UniProt:P12527
TEST_DETAILS: In vitro inhibition of 5-lipoxygenase (5-lo) from the 20000 g supernatant of RBI-1 cells
Assay type: cell-based
We label by threshold. Values of IC50 strictly beneath 9000 nM are 1.0. Values of 9000 nM and up are 0.0.

{"columns": ["CHEM_SMILES", "GROUP_LABEL"],
 "data": [
  ["Cc1sc(-c2ccncc2)nc1O", 0.0],
  ["Cc1ccc(-c2nc(O)c(-c3ccccc3)s2)cc1", 1.0],
  ["COc1ccc(-c2nc(O)c(C)s2)cc1", 1.0],
  ["CCCCc1sc(-c2ccccc2)nc1O", 0.0],
  ["CCCc1sc(-c2ccccc2)nc1OC(=O)OCc1ccccc1", 1.0],
  ["Cc1sc(-c2ccc(N)cc2)nc1O", 0.0],
  ["Cc1sc(-c2ccc(C(N)=O)cc2)nc1O", 1.0],
  ["Cc1sc(-c2ccc(S(N)(=O)=O)cc2)nc1O", 1.0],
  ["Cc1sc(-c2ccc([N+](=O)[O-])cc2)nc1O", 1.0],
  ["Cc1sc(-c2ccc(C(F)(F)F)cc2)nc1O", 1.0],
  ["CCCCCC(=O)Oc1nc(-c2ccccc2)sc1-c1ccccc1", 1.0]
]}

====

EXPERIMENTAL_SYSTEM: UniProt Q02759
Sequence (Q02759 whole entry): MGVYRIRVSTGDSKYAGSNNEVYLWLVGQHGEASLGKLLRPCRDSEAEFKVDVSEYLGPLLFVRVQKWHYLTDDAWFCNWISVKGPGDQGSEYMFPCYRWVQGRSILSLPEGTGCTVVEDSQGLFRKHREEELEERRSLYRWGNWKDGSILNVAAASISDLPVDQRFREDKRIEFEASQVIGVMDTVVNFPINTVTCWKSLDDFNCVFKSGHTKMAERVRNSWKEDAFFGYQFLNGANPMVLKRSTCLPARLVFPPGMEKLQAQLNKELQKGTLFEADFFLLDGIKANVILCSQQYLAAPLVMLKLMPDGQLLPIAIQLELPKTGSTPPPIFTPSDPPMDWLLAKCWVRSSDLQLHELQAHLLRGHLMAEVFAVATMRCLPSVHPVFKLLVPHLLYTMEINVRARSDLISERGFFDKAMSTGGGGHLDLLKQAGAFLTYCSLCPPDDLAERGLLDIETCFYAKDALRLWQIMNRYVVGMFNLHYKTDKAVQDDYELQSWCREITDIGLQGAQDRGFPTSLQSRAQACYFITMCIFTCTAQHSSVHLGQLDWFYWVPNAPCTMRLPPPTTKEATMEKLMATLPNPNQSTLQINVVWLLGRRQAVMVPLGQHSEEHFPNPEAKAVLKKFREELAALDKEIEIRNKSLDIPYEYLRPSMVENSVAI
TEST_DETAILS: The compound was tested for the in vitro inhibition of platelet 12-lipoxygenase at a concentration of 100 uM
A collection of compounds and their measured inhibition
VALUE_TYPE: inhibition (%)

{"columns": ["CHEM_SMILES", "EXPERIMENTAL_SYSTEM", "MEASURED"],
 "data": [
  ["COc1ccc(-c2nc(O)c(-c3ccccc3)s2)cc1", "UniProt Q02759", 6],
  ["Oc1nc(-c2ccc(F)cc2)sc1-c1ccccc1", "UniProt Q02759", 0],
  ["Oc1nc(-c2ccccc2)sc1CCc1ccccc1", "UniProt Q02759", 3],
  ["Cc1sc(-c2ccccc2)nc1O", "UniProt Q02759", 51],
  ["COC(=O)c1ccc(-c2nc(O)c(C)s2)cc1", "UniProt Q02759", 0]
]}
